Taken from PubChem BioAssay.

Tested on: Hepatitis C virus NS3 helicase
EXPERIMENT SUMMARY: blockers of NS3h binding to ssDNA – biochemical, fluorescence polarization, LOPAC1280 library, primary screen (AID 687035)
CONDITION SUMMARY: Purified HCV NS3 helicase, Cy5-dT15 ssDNA binding fluorescence polarization; concentration not given here
Calls of active or inactive are those of the source. Rule as the data show it: active = inhibition above about 37%; inactive = the rest.
Classes used: active, inactive

COMPOUND | TARGET DESC | CLASS NAME
COc1cc(N)c(Cl)cc1C(=O)OCCN1CCCCC1 | Hepatitis C virus NS3 helicase | inactive
NCC1OC(O[C@@H]2[C@H](O)C(OC3C(O)C(N)CC(N)C3OC3OC(CO)C(O)C(O)C3N)O[C@@H]2CO)C(N)C(O)C1O (stereo partly specified) | Hepatitis C virus NS3 helicase | inactive
C[N+](C)(C)CC=O | Hepatitis C virus NS3 helicase | inactive
NC(Cc1cccc(-c2ccccc2CP(=O)(O)O)c1)C(=O)O (stereo unspecified) | Hepatitis C virus NS3 helicase | inactive
Cc1ccc2c(c1)C(N1CCN(C)CC1)=Nc1cccnc1N2 | Hepatitis C virus NS3 helicase | inactive
N[C@@H](CCCC(=O)O)C(=O)O | Hepatitis C virus NS3 helicase | inactive
O=c1cc(O)cc(/C=C/c2ccc(O)c(O)c2)o1 | Hepatitis C virus NS3 helicase | inactive
NC1CCN(O)C1=O (stereo unspecified) | Hepatitis C virus NS3 helicase | inactive
Nc1ncnc2c1c(I)cn2[C@@H]1C[C@H](N)[C@@H](O)[C@H]1O | Hepatitis C virus NS3 helicase | inactive
Nc1ncnc2c1ncn2[C@@H]1O[C@H](CO)[C@H](O)C1O (stereo partly specified) | Hepatitis C virus NS3 helicase | inactive
COc1ccc2c(c1)c(CC(=O)O)c(C)n2Cc1ccc(Cl)cc1 | Hepatitis C virus NS3 helicase | inactive
N=C(N)c1ccc(OCCCCCOc2ccc(C(=N)N)cc2)cc1 (tested in a mixture with another compound) | Hepatitis C virus NS3 helicase | inactive
COc1cc2nc(N3CCN(C(=O)OCc4ccccc4)C(C(=O)NC(C)(C)C)C3)nc(N)c2cc1OC (stereo unspecified) | Hepatitis C virus NS3 helicase | inactive
O=c1[nH]ccc2c(O)cccc12 | Hepatitis C virus NS3 helicase | inactive
COc1cc(/C=C(\C#N)C(=O)c2ccc(O)c(O)c2)cc(I)c1O | Hepatitis C virus NS3 helicase | active
C=CCc1cccc(/C=N\NC(=O)CN2CCN(Cc3ccccc3)CC2)c1O | Hepatitis C virus NS3 helicase | inactive
COc1cccc2c1[C@@H]1CN(CCCCn3c(=O)[nH]c4c(sc5ncc(-c6ccccc6)nc54)c3=O)C[C@@H]1CO2 | Hepatitis C virus NS3 helicase | inactive
COc1ccccc1CNCCCCCCNCCCCCCCCNCCCCCCNCc1ccccc1OC | Hepatitis C virus NS3 helicase | inactive
N#CC(C#N)=C(N)/C(C#N)=C/c1ccc(O)cc1 | Hepatitis C virus NS3 helicase | inactive
CC[C@@H](C)[C@H]1O[C@]2(CC[C@@H]1C)C[C@@H]1C[C@@H](C/C=C(\C)[C@@H](O[C@H]3C[C@H](OC)[C@@H](O[C@H]4C[C@H](OC)[C@@H](O)[C@H](C)O4)[C@H](C)O3)[C@@H](C)/C=C/C=C3\CO[C@@H]4[C@H](O)C(C)=C[C@@H](C(=O)O1)[C@]34O)O2 | Hepatitis C virus NS3 helicase | inactive
CCCCCCC/C=C\CCCCCCCCC(=O)O | Hepatitis C virus NS3 helicase | inactive
COc1ccc2c(c1)CCC1C2CC[C@@]2(C)C1CC[C@@H]2NCCCCCCN1C(=O)C=CC1=O (stereo partly specified) | Hepatitis C virus NS3 helicase | inactive
Cn1c(=O)c2c(nc(/C=C/c3cccc(Cl)c3)n2C)n(C)c1=O | Hepatitis C virus NS3 helicase | inactive
CN(C)C(=O)N=NC(=O)N(C)C | Hepatitis C virus NS3 helicase | inactive
CCOC(=O)N1CCN(/[N+]([O-])=N\Oc2ccc([N+](=O)[O-])cc2[N+](=O)[O-])CC1 | Hepatitis C virus NS3 helicase | inactive
C=C1C[C@@]23CC[C@H]4[C@@](C)(CCC[C@@]4(C)C(=O)OC4OC(CO)C(O)C(O)C4O)[C@@H]2CC[C@]1(OC1OC(CO)C(O)C(O)C1OC1OC(CO)C(O)C(O)C1O)C3 (stereo partly specified) | Hepatitis C virus NS3 helicase | inactive
CC(C)COC(=O)OCN1C(=O)CN(CCN2CC(=O)N(COC(=O)OCC(C)C)C(=O)C2)CC1=O | Hepatitis C virus NS3 helicase | inactive
c1ccc2c(c1)CC(N1CCN(c3cccc4c3OCCO4)CC1)C2 | Hepatitis C virus NS3 helicase | inactive
[N-]=[N+]=Nc1ccc(C(=O)CSC[C@H](NC(=O)CC[C@H](N)C(=O)O)C(=O)NCC(=O)O)cc1 | Hepatitis C virus NS3 helicase | inactive
COc1cc(C(O)CO)ccc1O (stereo unspecified) | Hepatitis C virus NS3 helicase | inactive
O=C(O)[C@H]1NCCC[C@H]1C(=O)O | Hepatitis C virus NS3 helicase | inactive
COc1cc(C(O)CO)ccc1OS(=O)(=O)O (stereo unspecified) | Hepatitis C virus NS3 helicase | inactive
O=c1ccn([C@@H]2O[C@H](COP(=O)(O)OP(=O)(O)O)[C@@H](O)[C@H]2O)c(=O)[nH]1 | Hepatitis C virus NS3 helicase | inactive
CCCCN1CCC(n2c(=O)[nH]c3ccccc32)CC1 | Hepatitis C virus NS3 helicase | inactive
Brc1c(Br)c(Br)c2[nH]cnc2c1Br | Hepatitis C virus NS3 helicase | inactive
OCC1NCC(O)C(O)C1O (stereo unspecified) | Hepatitis C virus NS3 helicase | inactive
O=[N+]([O-])c1ccc(CSc2ncnc3c2ncn3[C@@H]2O[C@H](CO)[C@H](O)C2O)cc1 (stereo partly specified) | Hepatitis C virus NS3 helicase | inactive
Cc1nc(N=Nc2ccc(S(=O)(=O)O)cc2S(=O)(=O)O)c(COP(=O)(O)O)c(C=O)c1O | Hepatitis C virus NS3 helicase | inactive
O=c1ccc2c(OCCCCc3ccccc3)c3ccoc3cc2o1 | Hepatitis C virus NS3 helicase | inactive
CCCC[C@@]1(C2CCCC2)Cc2cc(OCC(=O)O)c(Cl)c(Cl)c2C1=O | Hepatitis C virus NS3 helicase | inactive
C=C1C(=O)O[C@@H]2[C@H]3O[C@]3(C)CCC=C(C)CC[C@@H]12 | Hepatitis C virus NS3 helicase | inactive

###

EXPERIMENT SUMMARY: viability loss with induced miR-34 in A549 – imaging, A549 dox-inducible miR-34, nuclei and caspase counts, primary screen (AID 1347080)
CONDITION SUMMARY: A549 miR-34 inducible, Hoechst nuclei count, 48 h; stronger effect = lower value; cell number ratio, induced over uninduced
Mark Condition met for fold change under 1, Condition not met if at or over.

MOLECULE | CLASS NAME
Cc1ccccc1-n1cc(-c2ccnc(NCCC3(O)CCN(C)CC3)n2)cn1 | Condition met
NCC(O)C1CCCCCCC1 (stereo unspecified) | Condition met
O=C1Nc2ccc(I)cc2C1=Cc1cc(Br)c(O)c(Br)c1 | Condition not met
Cc1cc2c(cc1Cl)N(C(=O)Nc1ccc(Oc3cccnc3C)nc1)CC2 | Condition met
O=C(O)Cc1ccc(O)c([N+](=O)[O-])c1 | Condition met
CN(C)CC=CC(=O)Nc1cc2c(Nc3ccc(F)c(Cl)c3)ncnc2cc1OC1CCOC1 (stereo unspecified) | Condition met
CC(=O)O[C@]12COC1CC(O)[C@]1(C)C(=O)C(O)C3=C(C)C(OC(=O)C(O)C(NC(=O)OC(C)(C)C)c4ccccc4)C[C@](O)(C(OC(=O)c4ccccc4)C21)C3(C)C (stereo partly specified) | Condition not met
CCCCC/C=C\CC1OC1C/C=C\C/C=C\CCCC(=O)O (stereo unspecified) | Condition not met
CC(O)Cc1cn(C2CCN(c3ncnc4nc[nH]c34)CC2)nn1 (stereo unspecified) | Condition met
N#C/C(=C\c1cc(Cl)cc(Cl)c1)c1cccnc1 | Condition not met
[K+] | Condition met

###

EXPERIMENT SUMMARY: viability loss with induced miR-34 in A549 – imaging, A549 dox-inducible miR-34, nuclei and caspase counts, primary screen (AID 1347080)
CONDITION SUMMARY: A549 miR-34 inducible, Hoechst nuclei count, 48 h; measured here: total cells with miR-34 induction; stronger effect = lower value
Quick reference for cell count among some compounds
ENDPOINT NAME: cell count

COMPOUND | RESULT NUMBER
COc1cc(/C=C(\C#N)C(=O)c2ccc(O)c(O)c2)cc(I)c1O | 9980
CN1C2CC(OC(=O)[C@H](CO)c3ccccc3)CC1C1OC12 (some centres undefined) | 10100
C[C@]1(C(=O)Nc2ccc(F)nc2)CCCN1c1nc(Nc2cc(C3CC3)[nH]n2)c2cccn2n1 | 2100
Fc1ccc(CC2CCNCC2)cc1 | 8200
CCC1OC(=O)CC(O)C(C)C(OC2OC(C)C(O)C(N(C)C)C2O)C(CCN2CC(C)CC(C)C2)CC(C)C(=O)C=CC(C)=CC1COC1OC(C)C(O)C(OC)C1OC (centres undefined) | 8240
O=C1/C(=C/c2ccsc2)CC/C1=C\c1cccs1 | 9920
CCCCC/C=C\C/C=C\C/C=C\C=C\[C@@H](O)CCCC(=O)O | 5700
O=c1c(-c2ccc(O)cc2)coc2cc(OC3OC(CO)C(O)C(O)C3O)ccc12 (centres undefined) | 5800
CCNC(=O)[C@H]1O[C@@H](n2cnc3c(N)nc(NCCc4ccc(CCC(=O)O)cc4)nc32)C(O)[C@H]1O (some centres undefined) | 9660
